- target_under_test: Sentrin-specific protease 6 (Homo sapiens) (UniProt Q9GZR1)
- Sequence (Q9GZR1 628-1112 limits assumed): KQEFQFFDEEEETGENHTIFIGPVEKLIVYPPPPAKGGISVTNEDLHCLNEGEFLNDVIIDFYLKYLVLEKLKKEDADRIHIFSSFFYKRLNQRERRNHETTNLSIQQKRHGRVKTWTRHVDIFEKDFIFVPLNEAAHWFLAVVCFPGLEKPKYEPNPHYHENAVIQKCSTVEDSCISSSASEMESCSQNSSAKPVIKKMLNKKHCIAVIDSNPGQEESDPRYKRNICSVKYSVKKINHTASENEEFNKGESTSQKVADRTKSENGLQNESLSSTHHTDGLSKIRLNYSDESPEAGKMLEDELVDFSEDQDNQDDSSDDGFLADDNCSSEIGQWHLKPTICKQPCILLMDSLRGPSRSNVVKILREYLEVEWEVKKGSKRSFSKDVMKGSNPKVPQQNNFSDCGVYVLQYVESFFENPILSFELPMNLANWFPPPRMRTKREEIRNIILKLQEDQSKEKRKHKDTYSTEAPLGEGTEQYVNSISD
- experiment_notes: SENP6 protease inhibitors, primary screen, biochemical, luminescence, uHTS (AID 2599);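 note: plate controls were DMSO wells with enzyme for no effect and DMSO wells lacking enzyme for full effect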
- measurement_setup: Recombinant SENP6 catalytic domain, aminoluciferin luminescence; at 10 µM
Hit rate of the full screen: of about 330,000 compounds, about 5,800 (1.8%) were called active.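 Rule for the calls: active = inhibition above about 50% at the single tested dose (limit read from the data); inactive = the rest.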 What follows is part of a selection rich in actives, with near analogues and random picks from the rest.
Outcome (select one): active, inactive

Example entries begin here.
* CCn1c(CN2C(=O)CSc3ccccc32)n[nH]c1=S | inactive
* O=C(CSC(=S)N1CCOCC1)c1cc(Br)cc(Br)c1O | inactive
* CCCCc1cc(=O)oc2cc(C)cc(OCc3nn[nH]n3)c12 | inactive
* O=C(CSC(=S)N1CCOCC1)c1ccccc1 | active
* CC1CN(C(=S)SCC(=O)c2ccccc2)CC(C)O1 (stereo unspecified) | inactive

Okay, now this molecule:
Enquiry: // param item: COc1ccc(-c2cc3ccc(OCc4nn[nH]n4)cc3oc2=O)cc1 ; yields the recorded call
Return: active

###

- target_under_test: Sentrin-specific protease 6 (Homo sapiens)
- experiment_notes: SENP6 protease inhibitors, primary screen, biochemical, luminescence, uHTS (AID 2599);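 note: plate controls were DMSO wells with enzyme for no effect and DMSO wells lacking enzyme for full effect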
- measurement_setup: Recombinant SENP6 catalytic domain, aminoluciferin luminescence; at 10 µM; hits give high values
Among all 330,000 compounds or so, about 5,800 (1.8%) were called active. The sample as a whole holds a higher share of actives than the screen did.
quantity_name: inhibition (%)
Give bare numbers, in %.

* Cc1cc(NC(=O)c2ccccc2C)no1 | -1.58
* S=C(Nc1cccc(Br)c1)N1CCn2cccc2C1c1cccnc1 (configuration not stated) | -5.73
* Cc1cccc(NC(=O)c2cc(N3C(=O)CCC3=O)ccc2Cl)n1 | -4.72
* COc1cc(/C=C(\C#N)c2nc3ccccc3[nH]2)ccc1O | 92.4
* O=C(CSc1nn(-c2ccc(F)cc2)c(=S)s1)NC1CCS(=O)(=O)C1 (configuration not stated) | -6.03
* O=C(CC(O)(C(F)(F)F)C(F)(F)F)Nc1ccc(Cl)c(Cl)c1 | 1.52

Provide inhibition for all items below, preserving their order.
1. CC(C(=O)N1CCc2ccccc21)N(C)CC(=O)Nc1ccc(F)cc1 (configuration not stated)
2. COc1ccc(CNC(=O)COC(=O)c2c(C)nn(-c3ccccc3)c2C)cc1OC
3. Cc1cccc(N)c1SC1CCCCC1O (configuration not stated)
4. Cc1nnc(NC(=O)/C=C/c2ccco2)s1
5. CCOC(=O)C(CC)Sc1ncnc2c1nnn2-c1ccc(F)cc1 (configuration not stated)
6. O=C(COC(=O)c1ccccn1)Nc1cccc2ccccc12
7. Cc1cc(NC(=O)COc2ccc([N+](=O)[O-])cc2)no1

Return:
-18.7
-8.11
14.9
-18.6
-3.73
-9.05
-2.83

Provide inhibition for all items below, preserving their order.
1. Cn1c(Nc2cccc(Cl)c2)nc2ccccc21
2. Cn1cc[n+](C)c1COc1ccc(C=O)cc1
3. Cc1ccc2nc(/C(C#N)=C\c3ccc(OC(=O)c4cccs4)cc3)[nH]c2c1

Return:
21.9
-1.65
-7.94

Provide inhibition for all items below, preserving their order.
1. CCn1nccc1C(=O)Nc1ccc(S(=O)(=O)NC23CC4CC(CC(C4)C2)C3)cc1
2. Nc1nc(NCC(=O)O)nc(N2CCCCCC2)c1[N+](=O)[O-]
3. COc1ccc(CNC(=O)Cc2ccc(-c3ccccc3)cc2)cc1OC
4. CC1(C)CC(=O)c2c(n(S(=O)(=O)c3ccccc3)c3ccc(NS(=O)(=O)c4ccccc4)cc23)C1

Return:
1. 1.42
2. 11.1
3. -23.6
4. 6.92

Provide inhibition for all items below, preserving their order.
1. Cc1c(Cl)c([N+](=O)[O-])nn1CC(=O)NCCCN1CCOCC1
2. COc1ccc(CNC(=O)COc2ccccc2C(=O)c2cnn(-c3ccccc3)c2)cc1OC
3. Cc1cccc(NC(=O)C2CCCN(C(=O)NCc3ccccc3)C2)c1C (configuration not stated)

Return:
-13.8
82.5
8.32
